Where these numbers come from: patent US12077503B2

system: ragweed (common ragweed, Ambrosia elatior); assay: Test A preemergence; format: in vivo; settings: Preemergence, 500 g ai/ha; 0 is no effect, 100 is complete control
Attribute measured: Ragweed plant response rating (0 to 100 scale)
Reply with the value as a number alone.

# count of solved cases: 2
[
  {
    "Molecule": "Cc1cccc(C2CNC(=O)C2C(=O)Nc2ccccc2F)c1 (racemic) [Compound 372]",
    "Readout number": 30
  },
  {
    "Molecule": "O=C1NCC(c2cccc(OCC(F)F)c2)C1C(=O)Nc1cccc(F)c1F (stereo not shown) [Compound 389]",
    "Readout number": 0
  }
]

(Q) Note down Ragweed plant response rating (0 to 100 scale) recorded for O=C1NCC(c2cccc(F)c2)C1C(=O)Nc1cccc(F)c1F (racemic) [Compound 375]
(A) 70

(Q) Using the record for Cc1ccc(C2CNC(=O)C2C(=O)Nc2ccc(F)cc2F)cc1F (racemic) [Compound 370] , state its measured Ragweed plant response rating (0 to 100 scale).
(A) 20
